Tested on: 519858-162-T-J1-PDC complex spheroid viability
Test: Anticancer human tumor 519858-162-T-J1-PDC patient-derived colon adenocarcinoma cell line growth inhibition [GQUAD]; active means viability on the fitted dose curve at most 10% of control; inactive means the rest
Details: second compound 3.16 µM; first compound 1 µM
A correct response names exactly one class from active, inactive

As a guide, the following entries are already answered.
>>> classlabel("O=C(NO)c1cnc(N2CCN(S(=O)(=O)c3ccc4ccccc4c3)CC2)nc1 + Cc1[nH]c2ccc(F)cc2c1-c1nc2c3cccnc3c3ncccc3c2[nH]1")
"active"
>>> classlabel("CCCS(=O)(=O)Nc1ccc(F)c(C(=O)c2c[nH]c3ncc(-c4ccc(Cl)cc4)cc23)c1F + Cc1[nH]c2ccc(F)cc2c1-c1nc2c3cccnc3c3ncccc3c2[nH]1")
"inactive"
>>> classlabel("C#Cc1c(F)ccc2cc(O)cc(-c3ncc4c(N5CC6CCC(C5)N6)nc(OCC56CCCN5CC(F)C6)nc4c3F)c12 (stereo unspecified) + Cc1[nH]c2ccc(F)cc2c1-c1nc2c3cccnc3c3ncccc3c2[nH]1")
"inactive"
>>> classlabel("COc1ccc([C@@H](O)c2cc(-c3ncnc4cc(N5CCOCC5)ccc34)c(F)cc2Cl)nn1 + Cc1cnc(CNC(=O)c2c(=O)c3ccc(N4CCCN(C)CC4)nc3n3c2sc2ccccc23)cn1")
"inactive"
>>> classlabel("COc1cccc2c1C(=O)c1c(O)c3c(c(O)c1C2=O)CC(O)(C(=O)CO)CC3OC1CC(N)C(O)C(C)O1 (stereo unspecified) + Cc1[nH]c2ccc(F)cc2c1-c1nc2c3cccnc3c3ncccc3c2[nH]1")
"inactive"

Input: Call for entry COc1cc(C2c3cc4c(cc3C(OC3OC5COC(C)OC5C(O)C3O)C3COC(=O)C23)OCO4)cc(OC)c1O (stereo unspecified) + CN(C)c1ccc(Nc2c3ccc(NC(=O)CCN4CCCC4)cc3nc3cc(NC(=O)CCN4CCCC4)ccc23)cc1 :
Output: inactive

Input: Call for entry O=C(c1cc(Cc2n[nH]c(=O)c3ccccc23)ccc1F)N1CCN(C(=O)C2CC2)CC1 + Cc1[nH]c2ccc(F)cc2c1-c1nc2c3cccnc3c3ncccc3c2[nH]1 :
Output: inactive

Input: Call for entry CC(C)n1c(=O)n(C)c2cnc3cc(F)c(-c4ccc(OCCCN5CCCCC5)nc4)cc3c21 + Cc1cnc(CNC(=O)c2c(=O)c3ccc(N4CCCN(C)CC4)nc3n3c2sc2ccccc23)cn1 :
Output: inactive

Input: Call for entry CC1COCCN1c1cc(-c2ccnn2C)c2ccnc(-c3ccn[nH]3)c2n1 (stereo unspecified) + Cc1cnc(CNC(=O)c2c(=O)c3ccc(N4CCCN(C)CC4)nc3n3c2sc2ccccc23)cn1 :
Output: inactive

Input: Call for entry CC1COCCN1c1cc(C2(S(C)(=N)=O)CC2)nc(-c2ccnc3[nH]ccc23)n1 (stereo unspecified) + CN(C)c1ccc(Nc2c3ccc(NC(=O)CCN4CCCC4)cc3nc3cc(NC(=O)CCN4CCCC4)ccc23)cc1 :
Output: inactive

Input: Call for entry C=CC(=O)N1CCN(c2nc(=O)n(-c3c(C)ccnc3C(C)C)c3nc(-c4c(O)cccc4F)c(F)cc23)C(C)C1 (stereo unspecified) + Cc1cnc(CNC(=O)c2c(=O)c3ccc(N4CCCN(C)CC4)nc3n3c2sc2ccccc23)cn1 :
Output: inactive

---

Task for the reader: assign each of the following compounds its reported viability, T/C.
Tested on: 519858-162-T-J1-PDC complex spheroid viability
Assay: Anticancer human tumor 519858-162-T-J1-PDC cell line growth inhibition [GQUAD];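 further: spheroids exposed to compounds for 7 days; 100% = DMSO vehicle control viability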
Conditions: second compound 0.316 µM; first compound 0.0316 µM; active compounds read low
Answers are plain numbers, in %.

Batch of 2 compounds: report viability, T/C for each.
1. Nc1ccn(C2OC(CO)C(O)C2(F)F)c(=O)n1 (stereo not drawn) + Cc1[nH]c2ccc(F)cc2c1-c1nc2c3cccnc3c3ncccc3c2[nH]1
2. COc1ccc([C@@H](O)c2cc(-c3ncnc4cc(N5CCOCC5)ccc34)c(F)cc2Cl)nn1 + Cc1cnc(CNC(=O)c2c(=O)c3ccc(N4CCCN(C)CC4)nc3n3c2sc2ccccc23)cn1

Output:
1. 93.3
2. 109

Batch of 7 compounds: report viability, T/C for each.
1. CC[C@@]1(O)C(=O)OCc2c1cc1n(c2=O)Cc2cc3c(CN(C)C)c(O)ccc3nc2-1 + Cc1cnc(CNC(=O)c2c(=O)c3ccc(N4CCCN(C)CC4)nc3n3c2sc2ccccc23)cn1
2. CCc1c2c(nc3ccc(O)cc13)-c1cc3c(c(=O)n1C2)COC(=O)[C@]3(O)CC + Cc1cnc(CNC(=O)c2c(=O)c3ccc(N4CCCN(C)CC4)nc3n3c2sc2ccccc23)cn1
3. CCc1c2c(nc3ccc(O)cc13)-c1cc3c(c(=O)n1C2)COC(=O)[C@]3(O)CC + Cc1[nH]c2ccc(F)cc2c1-c1nc2c3cccnc3c3ncccc3c2[nH]1
4. CC1COCCN1c1cc(-c2ccnn2C)c2ccnc(-c3ccn[nH]3)c2n1 (stereo not drawn) + Cc1cnc(CNC(=O)c2c(=O)c3ccc(N4CCCN(C)CC4)nc3n3c2sc2ccccc23)cn1
5. CC(C)(O)C1CCC(Nc2ccc3ncc(-c4cccc(C(F)(F)F)c4)n3n2)CC1 (stereo not drawn) + Cc1cnc(CNC(=O)c2c(=O)c3ccc(N4CCCN(C)CC4)nc3n3c2sc2ccccc23)cn1
6. CC(=O)O[C@H]1C(=O)[C@@]2(C)[C@H]([C@H](OC(=O)c3ccccc3)[C@]3(O)C[C@H](OC(=O)[C@H](O)[C@@H](NC(=O)c4ccccc4)c4ccccc4)C(C)=C1C3(C)C)[C@]1(OC(C)=O)CO[C@@H]1C[C@@H]2O + Cc1[nH]c2ccc(F)cc2c1-c1nc2c3cccnc3c3ncccc3c2[nH]1
7. COc1cccc2c1C(=O)c1c(O)c3c(c(O)c1C2=O)CC(O)(C(=O)CO)CC3OC1CC(N)C(O)C(C)O1 (stereo not drawn) + Cc1[nH]c2ccc(F)cc2c1-c1nc2c3cccnc3c3ncccc3c2[nH]1

Output:
78.8
67.2
53.9
112
107
91.1
82.3

Batch of 4 compounds: report viability, T/C for each.
1. C#Cc1c(F)ccc2cc(O)cc(-c3ncc4c(N5CC6CCC(C5)N6)nc(OCC56CCCN5CC(F)C6)nc4c3F)c12 (stereo not drawn) + Cc1cnc(CNC(=O)c2c(=O)c3ccc(N4CCCN(C)CC4)nc3n3c2sc2ccccc23)cn1
2. O=C(NO)c1cnc(N2CCN(S(=O)(=O)c3ccc4ccccc4c3)CC2)nc1 + Cc1[nH]c2ccc(F)cc2c1-c1nc2c3cccnc3c3ncccc3c2[nH]1
3. CC(C)(O)C1CCC(Nc2ccc3ncc(-c4cccc(C(F)(F)F)c4)n3n2)CC1 (stereo not drawn) + Cc1[nH]c2ccc(F)cc2c1-c1nc2c3cccnc3c3ncccc3c2[nH]1
4. C=CCn1c(=O)c2cnc(Nc3ccc(N4CCN(C)CC4)cc3)nc2n1-c1cccc(C(C)(C)O)n1 + Cc1cnc(CNC(=O)c2c(=O)c3ccc(N4CCCN(C)CC4)nc3n3c2sc2ccccc23)cn1

Output:
[65, 85.4, 68.2, 51.6]
